Recorded inhibition at 4 µg/mL by entry
test system: Candida albicans; assay: Antifungal activity against Candida albicans 90028 ATCC assessed as inhibition of growth at 4 ug/ml after 48 hrs relative to control; assay type: functional
State the answer as a number, implicitly in %.

molecule	unitText	inhibition at 4 µg/mL
CC(O)Cn1nnc(-c2ccccc2)n1 (racemic)	%	98.9

Problem: Recorded inhibition at 4 µg/mL for Cc1ccc(-c2nnn(CC(C)O)n2)cc1 (racemic) , please?
Solution: 98.9

Problem: Recorded inhibition at 4 µg/mL for CC(=O)OC(C)Cn1nnc(-c2ccc(C)cc2)n1 (racemic) , please?
Solution: 99.1

----------
system: Candida albicans; test: Antifungal activity against Candida albicans 90028 ATCC assessed as inhibition of growth at 0.06 ug/ml after 48 hrs relative to control; assay type: functional
measuredMetric: inhibition at 0.06 µg/mL
Hey, just the number and the unit after it is fine.

compound	inhibition at 0.06 µg/mL
CC(O)Cn1nnc(-c2ccccc2)n1 (racemic)	98.8%

Problem: Recorded inhibition at 0.06 µg/mL for Cc1ccc(-c2nnn(CC(C)O)n2)cc1 (racemic) , please?
Solution: 99%

Problem: Recorded inhibition at 0.06 µg/mL for CC(O)Cn1nnc(-c2ccccc2Cl)n1 (racemic) , please?
Solution: 99%

Problem: Recorded inhibition at 0.06 µg/mL for CC(O)CCn1nnc(-c2ccccc2)n1 (racemic) , please?
Solution: 98.9%

Problem: Recorded inhibition at 0.06 µg/mL for CC(O)CCn1nnc(-c2ccccc2Cl)n1 (racemic) , please?
Solution: 98.9%

----------
test: Cytotoxicity against african green monkey Vero cells assessed as reduction in cell viability at 4 to 32 ug/mL after 6 hrs by XTT assay; assay type: cell-based; settings: chlorocebus sabaeus, read-out: INH
measuredMetric: cytotoxicity at 6 h (%)
State the answer as a number, implicitly in %.

Problem: Recorded cytotoxicity at 6 h for CC(=O)OC(C)Cn1nnc(-c2ccccc2Cl)n1 (racemic) , please?
Solution: 4

----------
tested on: Candida albicans; assay: Antifungal activity against Candida albicans 90028 ATCC assessed as decrease in turbidity after 48 hrs relative to control; format: functional
measuredMetric: MIC (µg/mL)
State the answer as a number, implicitly in µg/mL.

compound	unitText	quantitativeReadout
CC(O)CCn1nnc(-c2ccccc2Cl)n1 (racemic)	µg/mL	8
CC(=O)OC(C)Cn1nnc(-c2ccc(C)cc2)n1 (racemic)	µg/mL	0.5
CC(=O)OC(C)CCn1nnc(-c2ccccc2Cl)n1 (racemic)	µg/mL	4
CC(=O)OC(C)CCn1nnc(-c2ccc(C)cc2)n1 (racemic)	µg/mL	4
CC(O)CCn1nnc(-c2ccccc2)n1 (racemic)	µg/mL	0.125
CC(=O)OC(C)CCn1nnc(-c2ccccc2)n1 (racemic)	µg/mL	4
CC(O)Cn1nnc(-c2ccccc2Cl)n1 (racemic)	µg/mL	0.125

Problem: Recorded MIC for Cc1ccc(-c2nnn(CCC(C)O)n2)cc1 (racemic) , please?
Solution: 4

----------
system: Candida albicans; experiment: Antifungal activity against Candida albicans 90028 ATCC assessed as inhibition of growth at 0.25 ug/ml after 48 hrs relative to control; type: functional
Recorded inhibition at 0.25 µg/mL by entry
State the answer as a number, implicitly in %.

molecule	assayedTarget	unitText	inhibition at 0.25 µg/mL
CC(O)CCn1nnc(-c2ccccc2Cl)n1 (racemic)	Candida albicans	%	98.9
CC(=O)OC(C)CCn1nnc(-c2ccccc2Cl)n1 (racemic)	Candida albicans	%	98.9
CC(=O)OC(C)CCn1nnc(-c2ccccc2)n1 (racemic)	Candida albicans	%	99
Cc1ccc(-c2nnn(CCC(C)O)n2)cc1 (racemic)	Candida albicans	%	98.9
CC(O)Cn1nnc(-c2ccccc2)n1 (racemic)	Candida albicans	%	98.7

Problem: Reported inhibition at 0.25 µg/mL for Candida albicans, given CC(=O)OC(C)Cn1nnc(-c2ccccc2Cl)n1 (racemic) ?
Solution: 99

Problem: Reported inhibition at 0.25 µg/mL for Candida albicans, given CC(=O)OC(C)CCn1nnc(-c2ccc(C)cc2)n1 (racemic) ?
Solution: 99

Problem: Reported inhibition at 0.25 µg/mL for Candida albicans, given Cc1ccc(-c2nnn(CC(C)O)n2)cc1 (racemic) ?
Solution: 99

Problem: Reported inhibition at 0.25 µg/mL for Candida albicans, given CC(O)CCn1nnc(-c2ccccc2)n1 (racemic) ?
Solution: 99

Problem: Reported inhibition at 0.25 µg/mL for Candida albicans, given CC(O)Cn1nnc(-c2ccccc2Cl)n1 (racemic) ?
Solution: 99

Problem: Reported inhibition at 0.25 µg/mL for Candida albicans, given CC(=O)OC(C)Cn1nnc(-c2ccc(C)cc2)n1 (racemic) ?
Solution: 98.9

----------
Recorded inhibition at 1 µg/mL by entry
tested on: Candida albicans; assay: Antifungal activity against Candida albicans 90028 ATCC assessed as inhibition of growth at 1 ug/ml after 48 hrs relative to control; assay type: functional
State the answer as a number, implicitly in %.

# annotated cases, reported inhibition at 1 µg/mL shown
molecule	quantitativeReadout
CC(=O)OC(C)Cn1nnc(-c2ccc(C)cc2)n1 (racemic)	99.1
CC(=O)OC(C)CCn1nnc(-c2ccccc2Cl)n1 (racemic)	98.9
CC(O)CCn1nnc(-c2ccccc2)n1 (racemic)	99
CC(=O)OC(C)CCn1nnc(-c2ccccc2)n1 (racemic)	98.9
Cc1ccc(-c2nnn(CCC(C)O)n2)cc1 (racemic)	98.9
CC(O)CCn1nnc(-c2ccccc2Cl)n1 (racemic)	99
Cc1ccc(-c2nnn(CC(C)O)n2)cc1 (racemic)	98.8
CC(=O)OC(C)CCn1nnc(-c2ccc(C)cc2)n1 (racemic)	98.9

Problem: Recorded inhibition at 1 µg/mL for CC(=O)OC(C)Cn1nnc(-c2ccccc2Cl)n1 (racemic) , please?
Solution: 99

Problem: Recorded inhibition at 1 µg/mL for CC(O)Cn1nnc(-c2ccccc2Cl)n1 (racemic) , please?
Solution: 99

Problem: Recorded inhibition at 1 µg/mL for CC(O)Cn1nnc(-c2ccccc2)n1 (racemic) , please?
Solution: 98.8

----------
Recorded inhibition at 4 µg/mL by entry
test system: Candida albicans; assay: Antifungal activity against Candida albicans 90028 ATCC assessed as inhibition of growth at 4 ug/ml after 48 hrs relative to control; type: functional
State the answer as a number, implicitly in %.

# annotated cases, reported inhibition at 4 µg/mL shown
molecule	inhibition at 4 µg/mL [%]
Cc1ccc(-c2nnn(CCC(C)O)n2)cc1 (racemic)	99
CC(=O)OC(C)CCn1nnc(-c2ccc(C)cc2)n1 (racemic)	99
CC(=O)OC(C)Cn1nnc(-c2ccccc2Cl)n1 (racemic)	99
CC(=O)OC(C)CCn1nnc(-c2ccccc2Cl)n1 (racemic)	99
CC(=O)OC(C)CCn1nnc(-c2ccccc2)n1 (racemic)	99

Problem: Recorded inhibition at 4 µg/mL for CC(O)CCn1nnc(-c2ccccc2Cl)n1 (racemic) , please?
Solution: 99

Problem: Recorded inhibition at 4 µg/mL for CC(O)CCn1nnc(-c2ccccc2)n1 (racemic) , please?
Solution: 99

Problem: Recorded inhibition at 4 µg/mL for CC(O)Cn1nnc(-c2ccccc2Cl)n1 (racemic) , please?
Solution: 99

----------
Recorded inhibition at 0.06 µg/mL by entry
test system: Candida albicans; assay: Antifungal activity against Candida albicans 90028 ATCC assessed as inhibition of growth at 0.06 ug/ml after 48 hrs relative to control; type: functional
State the answer as a number, implicitly in %.

# annotated cases, reported inhibition at 0.06 µg/mL shown
compound	measuredMetric	quantitativeReadout
CC(=O)OC(C)CCn1nnc(-c2ccc(C)cc2)n1 (racemic)	inhibition at 0.06 µg/mL	98.9
CC(=O)OC(C)CCn1nnc(-c2ccccc2)n1 (racemic)	inhibition at 0.06 µg/mL	98.9
Cc1ccc(-c2nnn(CCC(C)O)n2)cc1 (racemic)	inhibition at 0.06 µg/mL	99

Problem: Reported inhibition at 0.06 µg/mL for Candida albicans, given CC(=O)OC(C)CCn1nnc(-c2ccccc2Cl)n1 (racemic) ?
Solution: 98.9

Problem: Reported inhibition at 0.06 µg/mL for Candida albicans, given CC(=O)OC(C)Cn1nnc(-c2ccccc2Cl)n1 (racemic) ?
Solution: 98.9

Problem: Reported inhibition at 0.06 µg/mL for Candida albicans, given CC(=O)OC(C)Cn1nnc(-c2ccc(C)cc2)n1 (racemic) ?
Solution: 98.9
